- System: Mus musculus
- ASSAY PROCEDURE: Antidepressant activity in Mus musculus Kunming (mouse) assessed as reduction in duration of immobility at 10 mg/kg, ip measured after 30 min by forced swim test
- Type: functional
- MEASUREMENT SETUP: 0.5 h, route intraperitoneal
If the reported inhibition in vivo at 10 mg/kg equals or exceeds 8%, assign fulfilled. If not, assign not fulfilled.

**Query** Could you please find out whether CCCCCCCCCCCCCCCC(=O)N(CC)CC [HEXADECANOIC ACID DIETHYLAMIDE] has inhibition in vivo at 10 mg/kg that meets 8% or exceeds it?
**Result** fulfilled

New cases:
**Query** Could you please find out whether CCCCCCCCCCCCCCCCCC(=O)NCCO [N-(2-HYDROXYETHYL)STEARAMIDE] has inhibition in vivo at 10 mg/kg that meets 8% or exceeds it?
**Result** not fulfilled
